Listed here: compounds with reported pIC50 for Human cGAS (Homo sapiens (Human)).
Numbers only, as −log10 of the molar value.

Please review the following examples before continuing.
# query: pIC50 | item O=C(O)[C@@H]1C[C@H](Oc2ncc(Br)cc2C2(F)CCS(=O)(=O)CC2)CN1c1nc(C(F)F)nc2c1oc1ccccc12 [Example 2.04] | system: Human cGAS (Homo sapiens (Human))
8.30

Give pIC50 (Human cGAS (Homo sapiens (Human))) of the following compound: O=C(O)[C@@H]1C[C@H](Oc2ncc(Cl)cc2C2(F)CCS(=O)(=O)CC2)CN1c1nc(C(F)(F)F)nc2c1oc1ccccc12 [Example 2.02]
8.40

Field: pIC50 (Human cGAS (Homo sapiens (Human))). Entry: N#CN1CCC(F)(c2cc(Cl)cnc2O[C@H]2C[C@@H](C(=O)O)N(c3nc(C(F)F)nc4c3oc3ccccc34)C2)CC1 [Example 2.05]
8.22

What is its pIC50 for Human cGAS (Homo sapiens (Human))? Entry: C[C@H]1COCC[C@]1(F)c1cc(-c2cnn(C(F)F)c2)cnc1O[C@H]1C[C@@H](C(=O)O)N(c2nc(C(F)F)nc3c2oc2ccccc23)C1 [Example 6.01]
8.30

Checklist item: pIC50 tested on Human cGAS (Homo sapiens (Human)), entry C#Cc1cnc(O[C@H]2C[C@@H](C(=O)O)N(c3nc(C(F)F)nc4c3oc3ccccc34)C2)c([C@@]2(F)CCS(=O)(=O)C[C@@H]2C)c1 [Example 2.11] , value?;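 also: compounds preincubated 60 min, then GTP and ATP (30 µM each) added for 90 min at room temperature, cGAMP read relative to cyclic-di-GMP internal standard, no-enzyme/DNA wells as 0%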
Sequence (Q8N884 whole entry): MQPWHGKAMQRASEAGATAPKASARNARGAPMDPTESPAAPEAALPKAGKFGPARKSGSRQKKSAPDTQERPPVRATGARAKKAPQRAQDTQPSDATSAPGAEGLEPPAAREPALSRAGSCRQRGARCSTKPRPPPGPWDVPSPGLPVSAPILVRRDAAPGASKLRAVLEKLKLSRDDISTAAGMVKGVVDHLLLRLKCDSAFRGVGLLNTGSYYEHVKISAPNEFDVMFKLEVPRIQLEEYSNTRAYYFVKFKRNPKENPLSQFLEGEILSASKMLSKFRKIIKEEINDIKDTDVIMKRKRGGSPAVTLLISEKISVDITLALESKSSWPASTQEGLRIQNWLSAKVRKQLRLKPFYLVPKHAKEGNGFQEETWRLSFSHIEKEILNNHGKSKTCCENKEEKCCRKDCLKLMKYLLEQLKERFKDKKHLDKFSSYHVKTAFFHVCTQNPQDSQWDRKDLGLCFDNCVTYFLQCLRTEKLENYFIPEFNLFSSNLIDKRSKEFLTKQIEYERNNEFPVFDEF
8.70

Further cases:
For Human cGAS (Homo sapiens (Human)), provide pIC50 of CNc1cc(-c2cnc(O[C@H]3C[C@@H](C(=O)O)N(c4nc(C(F)F)nc5c4oc4ccccc45)C3)c([C@@]3(F)CCOC[C@@H]3C)c2)ccn1 [Example 3.02] please.
8.70
